# growth per record follows
Test system: SF-539 CNS
test summary: NCI-60 one-dose screen, 48 h (100 = growth as untreated, 0 = no growth, -100 = all killed)
measurement conditions: 10 µM unless noted
Method: Cells are grown in 96 well plates and exposed to the test compound for 48 hours. Compounds are tested at a single concentration, which is 10^-5 M for most compounds. The reported endpoint is percent growth (GI% or GIPRCNT), where numbers from 0 - 100% represent growth inhibition, and numbers from -100% - 0 represent cell death. For example, a value of 40 represents 60% growth inhibition. A value of 0 means no net growth occurred over the course of the experiment. […]
About 83,000 compounds went through this panel and 20% of them were active in at least one assay; those are over-represented in the sample as a whole.
value type: growth (%)

> print(dat)
                     structure.smiles.string         tgt  value.type  units.of.measure  endpoint.value
 1  CC(=O)O[C@H]1C[C@@H]2C(C)(C)C(=O)CC[C@@]2(C)c2ccc(C(C)C)cc21  SF-539 CNS      growth                 %             110
 2  CCOc1ccc(-n2nc(C(=O)NCc3ccccc3OC)nc2-c2cc(OC)c(OC)c(OC)c2)cc1  SF-539 CNS      growth                 %            49.2
 3              CS(=O)(=O)c1nnc(-c2ccccc2)s1  SF-539 CNS      growth                 %             106
 4  CC1(C)CC2=C3C=C[C@@H]4[C@@]5(C)CCC(=O)C(C)(C)[C@@H]5CC[C@@]4(C)[C@]3(C)CC[C@@]2(C(=O)O)C[C@H]1O  SF-539 CNS      growth                 %            34.8
 5   Oc1c(CN2CCOCC2)cc(COCc2ccccc2)c2cccnc12  SF-539 CNS      growth                 %            4.65
 6    CCN(CC)Cc1cc(Nc2ccnc3cc(Cl)ccc23)ccc1O  SF-539 CNS      growth                 %            85.6
 7          Cc1cc2c(cc1C)N(C(=O)CCl)CC(=O)N2  SF-539 CNS      growth                 %            93.2
 8  COc1ccc(/C=C(/c2ccccc2)[N+](=O)[O-])c(OC)c1  SF-539 CNS      growth                 %           -48.5
 9  CNC(=O)c1cc(Oc2ccc3c(c2)sc2nc(-c4ccc(OC)cc4)cn23)ccn1  SF-539 CNS      growth                 %            83.6
10  Cc1ccc(C(=O)Nc2cccc(C#Cc3cccc4[nH]nc(N)c34)c2)cc1C(F)(F)F  SF-539 CNS      growth                 %            8.47

Where do the numbers come from? From PubChem BioAssay (NCI).
